Data origin: ChEMBL document CHEMBL1697781

system: Hepatotoxicity; assay: FDA HLAED, serum glutamic oxaloacetic transaminase (SGOT) increase; conditions: human
Reported Property: SGOT Increase - Number of Reports

[[record]]
molecule = "CCOC(=O)c1ncn2c1CN(C)C(=O)c1cc(F)ccc1-2"
tested_on = "Hepatotoxicity"
reported_property = "SGOT Increase - Number of Reports"
observed_value = "< 4"

[[record]]
molecule = "COc1cc(N)c(Cl)cc1C(=O)NC1CCN(CCCOc2ccc(F)cc2)CC1OC (configuration not stated) [CISAPRIDE]"
tested_on = "Hepatotoxicity"
reported_property = "SGOT Increase - Number of Reports"
observed_value = ">= 4"

[[record]]
molecule = "CCOC(=O)[C@H](CCc1ccccc1)N[C@@H](C)C(=O)N1Cc2cc(OC)c(OC)cc2C[C@H]1C(=O)O"
tested_on = "Hepatotoxicity"
reported_property = "SGOT Increase - Number of Reports"
observed_value = "< 4"

[[record]]
molecule = "CC(=O)[C@]1(O)Cc2c(O)c3c(c(O)c2[C@@H](O[C@H]2C[C@H](N)[C@H](O)[C@H](C)O2)C1)C(=O)c1ccccc1C3=O"
tested_on = "Hepatotoxicity"
reported_property = "SGOT Increase - Number of Reports"
observed_value = "< 4"

[[record]]
molecule = "C=C1/C(=C\\C=C2/CCC[C@]3(C)[C@@H]([C@H](C)/C=C/[C@@H](O)C4CC4)CC[C@@H]23)C[C@@H](O)C[C@@H]1O"
tested_on = "Hepatotoxicity"
reported_property = "SGOT Increase - Number of Reports"
observed_value = "< 4"

[[record]]
molecule = "CCOC(=O)[C@H](CCc1ccccc1)N[C@@H](C)C(=O)N1[C@H](C(=O)O)C[C@H]2CCCC[C@@H]21"
tested_on = "Hepatotoxicity"
reported_property = "SGOT Increase - Number of Reports"
observed_value = "< 4"

[[record]]
molecule = "CCn1cc(C(=O)O)c(=O)c2cc(F)c(N3CCNCC3)cc21"
tested_on = "Hepatotoxicity"
reported_property = "SGOT Increase - Number of Reports"
observed_value = ">= 4"

